- SUBJECT OF TEST: 3-hydroxyacyl-CoA dehydrogenase type-2 (Homo sapiens) (UniProt Q99714)
- METHOD: qHTS Assay for Inhibitors of HSD17B4, hydroxysteroid (17-beta) dehydrogenase 4
- TEST SETTINGS: recombinant HSD17B10, NADH fluorescence kinetic; series mostly up to 57.1 µM
About 5,700 (7.6%) of roughly 75,000 compounds were called active. Not shown: some 7% with an inconclusive outcome. Calls come from the whole dose curve; as a rule, active = well fitted inhibition curve with a large enough effect; inconclusive = small, poorly fitted or top-dose-only effect; inactive = no such curve, though single readings can be large or run the other way. For the sample, actives were picked, then their nearest neighbours and some compounds at random.
# valid calls are class 1 (active), class 0 (inactive); nothing else

# count of solved cases: 5
COMPOUND: Cc1cc(C)nc(N2C(=O)CC(Cc3ccccc3)C2=O)n1 (stereo unspecified)
GROUP: class 0
//
COMPOUND: COc1ccccc1Nc1ncc(C(C)=O)c(C)n1
GROUP: class 0
//
COMPOUND: C=CCSc1nc2c(c(=O)[nH]1)C(C(C)C)C(C#N)=C(N)O2 (stereo unspecified)
GROUP: class 0
//
COMPOUND: COc1cccc(C2/C(=C(/O)c3ccncc3)C(=O)C(=O)N2CCCN(C)C)c1 (stereo unspecified)
GROUP: class 0
//
COMPOUND: CCN1C(=O)CS/C1=N\c1nccs1
GROUP: class 0

Attention now turns to another entry.
Please share the test call associated with "CC(=O)OCC(COC(C)=O)OC(C)=O" .
class 0

---

- SUBJECT OF TEST: 3-hydroxyacyl-CoA dehydrogenase type-2 (Homo sapiens)
- METHOD: qHTS Assay for Inhibitors of HSD17B4, hydroxysteroid (17-beta) dehydrogenase 4;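 note: the protocol describes HADH2 (HSD17B10) and not the HSD17B4 of the title; nearly all actives have a fitted effect of over 70% in size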
- TEST SETTINGS: recombinant HSD17B10, NADH fluorescence kinetic; series mostly up to 57.1 µM
In all, about 75,000 compounds went through this assay and about 5,700 (7.6%) were called active. Inconclusive results (about 7%) are left out. Calls come from the whole dose curve; as a rule, active = well fitted inhibition curve with a large enough effect; inconclusive = small, poorly fitted or top-dose-only effect; inactive = no such curve, though single readings can be large or run the other way. Many of the other results were omitted from the sample, so actives are more common in it than they were.
Use one of these outcomes when replying: active, inactive

Solved cases (3 shown):
COMPOUND: COc1ccc(C(=O)NC(=O)CSc2nnc(-c3ccco3)n2-c2ccccc2)cc1
SUBJECT OF TEST: 3-hydroxyacyl-CoA dehydrogenase type-2 (Homo sapiens)
GROUP: inactive
--
COMPOUND: COc1nc(NCc2ccc(Cl)cc2)nc(OC)n1
SUBJECT OF TEST: 3-hydroxyacyl-CoA dehydrogenase type-2 (Homo sapiens)
GROUP: inactive
--
COMPOUND: CCOC(=O)c1nc(-c2ccc3c(c2)OCO3)[nH]c1C
SUBJECT OF TEST: 3-hydroxyacyl-CoA dehydrogenase type-2 (Homo sapiens)
GROUP: active

Answer briefly: the call reported for "CCOc1ccc(C(=O)Nc2cc(OC)ccc2OC)cc1" in this assay.
inactive

Which result was noted for this compound in the test: "O=C(O)C1CCN(S(=O)(=O)N2CCOCC2)CC1"
inactive

Check the results log: what was the call for "CCOC(=O)n1c(SCC(=O)N(CC)CC)nc2ccccc21" ?
inactive

---

- SUBJECT OF TEST: 3-hydroxyacyl-CoA dehydrogenase type-2 (Homo sapiens) (UniProt Q99714)
- METHOD: qHTS Assay for Inhibitors of HSD17B4, hydroxysteroid (17-beta) dehydrogenase 4;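 note: the protocol describes HADH2 (HSD17B10) and not the HSD17B4 of the title; nearly all actives have a fitted effect of over 70% in size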
- TEST SETTINGS: recombinant HSD17B10, NADH fluorescence kinetic; series mostly up to 57.1 µM
Screen size: about 75,000 compounds; about 5,700 (7.6%) were called active. Inconclusive results (about 7%) are left out. Calls come from the whole dose curve; as a rule, active = well fitted inhibition curve with a large enough effect; inconclusive = small, poorly fitted or top-dose-only effect; inactive = no such curve, though single readings can be large or run the other way. Many of the other results were omitted from the sample, so actives are more common in it than they were.
Please state which outcome applies, choosing from True for active, False for inactive

Below are worked cases with known answers.
COMPOUND: Cc1ccc(CNC(=O)C2CCCN(S(C)(=O)=O)C2)cc1 (configuration not stated)
GROUP: False
--
COMPOUND: c1ccc(-n2nnnc2N2CCOCC2)cc1
GROUP: False
--
COMPOUND: O=C(Oc1cccnc1)c1cc2ccccc2oc1=O
GROUP: True
--
COMPOUND: CCOC(=O)c1cnc2sccn2c1=O
GROUP: True
--
COMPOUND: O=C(Nc1ccncc1)c1cc2ccccc2o1
GROUP: False

In this assay, the call recorded for "CCn1c2c(c3ccc(OC)cc31)CCCC2=O" was what?
True

Lab log entry: "O=C(NCc1ccccn1)c1cnc2sccn2c1=O" — outcome as called in the assay?
True

Lab log entry: "O=C1c2ccccc2-c2ncnc3c(N4CCOCC4)cc(N4CCOCC4)c1c23" — outcome as called in the assay?
False

Tell me the assay call for "O=C(NCc1ccccn1)c1cc2ccccc2oc1=O" please.
True

State the result this test recorded for "CCn1c(=N)n(CC(=O)c2cccc(OC)c2)c2ccccc21" .
False

Hi, sorry to bother you, what did the test record for "c1ccc(-c2oc3ncnc(N4CCOCC4)c3c2-c2ccccc2)cc1" ?
True

// outcome(item) with item = "CCOC(=O)c1cnc(-n2nc(C)cc2C)nc1-n1nc(C)cc1C"
False

---

- SUBJECT OF TEST: 3-hydroxyacyl-CoA dehydrogenase type-2 (Homo sapiens)
- METHOD: qHTS Assay for Inhibitors of HSD17B4, hydroxysteroid (17-beta) dehydrogenase 4;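 note: the protocol describes HADH2 (HSD17B10) and not the HSD17B4 of the title; nearly all actives have a fitted effect of over 70% in size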
- TEST SETTINGS: recombinant HSD17B10, NADH fluorescence kinetic; series mostly up to 57.1 µM
- Procedure: Assay Overview: NIH Molecular Libraries Screening Centers Network [MLSCN] NIH Chemical Genomics Center [NCGC] Structural Genomics Consortium [SGC] […] An increase in the fluorescence intensity due to conversion of NAD+ to NADH was used to measure the enzyme activity. Assay Protocol: Buffer: 100 mM Tris-HCl pH 9.0, containing 0.01 % Tween-20. […] The fluorescence intensity difference between the last and the first time points was used to compute reaction progress.
In all, about 75,000 compounds went through this assay and about 5,700 (7.6%) were called active. Not shown: some 7% with an inconclusive outcome. Calls come from the whole dose curve; as a rule, active = well fitted inhibition curve with a large enough effect; inconclusive = small, poorly fitted or top-dose-only effect; inactive = no such curve, though single readings can be large or run the other way. The sample as a whole holds a higher share of actives than the screen did.
// one of active, inactive, no free text

Below, 10 compounds whose answers are already recorded.
COMPOUND: CC(C)CC1(C(=O)NCc2ccccn2)C=CCN1C(=O)c1ccccc1 (stereo unspecified)
GROUP: inactive
//
COMPOUND: CC(=O)c1cc2c(cc1N)OCO2
GROUP: inactive
//
COMPOUND: COc1cc(NC(=O)N2CCOCC2)cc(OC)c1
GROUP: inactive
//
COMPOUND: O=C(NCc1ccccn1)c1ccc2nc(-c3ccco3)c(-c3ccco3)nc2c1
GROUP: active
//
COMPOUND: CC(C)(C)C(=O)CCN1C(=O)C2(OCCO2)c2ccccc21
GROUP: inactive
//
COMPOUND: O=C(Nc1nc(-c2ccncc2)cs1)C1COc2ccccc2O1 (stereo unspecified)
GROUP: active
//
COMPOUND: O=C(Nc1c(C(=O)N2CCCCC2)cnn1-c1ccccc1)c1ccco1
GROUP: inactive
//
COMPOUND: O=C(c1cccc(C(=O)N2CCN(c3ccc(F)cc3)CC2)c1)N1CCN(c2ccc(F)cc2)CC1
GROUP: inactive
//
COMPOUND: ON=C1/C(=N\O)CC2(C/C1=N/O)OCCO2
GROUP: inactive
//
COMPOUND: CCOc1ccc(C(=O)N(Cc2ccc(N(C)C)cc2)C2CCS(=O)(=O)C2)cc1 (stereo unspecified)
GROUP: inactive

Give the logged outcome of this assay for the following compound: "CCOc1ccc2nc(NC(=O)CSc3nc4c(c(=O)n(C)c(=O)n4C)n3CC)sc2c1"
inactive

---

- SUBJECT OF TEST: 3-hydroxyacyl-CoA dehydrogenase type-2 (Homo sapiens) (UniProt Q99714)
- METHOD: qHTS Assay for Inhibitors of HSD17B4, hydroxysteroid (17-beta) dehydrogenase 4;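 note: the protocol describes HADH2 (HSD17B10) and not the HSD17B4 of the title; nearly all actives have a fitted effect of over 70% in size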
- TEST SETTINGS: recombinant HSD17B10, NADH fluorescence kinetic; series mostly up to 57.1 µM
Hit rate of the full screen: of about 75,000 compounds, about 5,700 (7.6%) were called active. Inconclusive results (about 7%) are left out. Calls follow the shape of the dose curve; as a rule, active = well fitted inhibition curve with a large enough effect; inconclusive = small, poorly fitted or top-dose-only effect; inactive = no such curve, though single readings can be large or run the other way. This excerpt belongs to a sample that is enriched for actives.
A correct response names exactly one class from 1 = active, -1 = inactive

// known answers, use as guide
MOLECULE: COc1ccc(S(=O)(=O)N2CCN(C(=O)c3cccs3)CC2)cc1OC
GROUP: 1
--
MOLECULE: FC(F)(F)c1cc(-c2cccs2)nc(NCc2ccco2)n1
GROUP: 1
--
MOLECULE: O=C(CSc1nc(-c2ccco2)cc(C(F)(F)F)n1)NCc1cccs1
GROUP: -1
--
MOLECULE: O=C(CSc1nnc(-c2cccs2)n1-c1ccccc1)NCc1ccco1
GROUP: -1
--
MOLECULE: CCOC(=O)CCc1c(C)c2ccc(OCc3nn[nH]n3)c(C)c2oc1=O
GROUP: 1

Hi team, can someone confirm the assay call for O=C(NCCc1ccc(Cl)cc1)C1CC(=O)N(C2CCCCC2)C1 (stereo unspecified) ?
-1

What was the test verdict on COc1ccc(N2C(=O)C3CCCN3C2c2cc(OC)c(OC)cc2OC)cc1 (stereo unspecified) ?
-1

Could you please tell me the result logged for "COc1ccccc1Cn1c(=S)[nH]c2cc(C(=O)N3CCN(C)CC3)ccc2c1=O" in this assay?
-1

Entry "O=C(Nc1cccc(F)c1)c1ccc(S(=O)(=O)N2CCCC2)cc1" : call = ?
-1

Per the records of this test, what outcome belongs to CCCC(C(=O)N1CCOCC1)N1C(=O)C2C3C=CC(C3)C2C1=O (stereo unspecified) ?
-1

How was "NS(=O)(=O)c1ccc(CCNC(=O)Nc2ccc(Cl)cc2)cc1" classified in this test?
-1
